Molecular target: UniProt O54798
Sequence (O54798 whole entry): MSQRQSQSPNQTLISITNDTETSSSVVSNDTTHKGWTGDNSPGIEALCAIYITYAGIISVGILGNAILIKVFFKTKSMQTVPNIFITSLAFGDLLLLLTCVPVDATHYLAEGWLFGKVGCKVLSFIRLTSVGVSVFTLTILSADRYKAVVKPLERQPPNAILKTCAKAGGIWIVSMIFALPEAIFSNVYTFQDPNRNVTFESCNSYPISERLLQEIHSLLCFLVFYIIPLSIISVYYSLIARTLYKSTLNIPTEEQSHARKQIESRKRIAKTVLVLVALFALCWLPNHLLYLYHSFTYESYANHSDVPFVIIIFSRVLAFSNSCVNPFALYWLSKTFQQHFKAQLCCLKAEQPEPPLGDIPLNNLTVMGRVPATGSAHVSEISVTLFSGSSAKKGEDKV
Test: Agonist activity at mouse BRS-3 expressed in HEK293AEQ cells assessed as bioluminescence for 10 mins by aequorin bioluminescence assay
Would you mind telling me the reported pEC50 of each entry?
Field pEC50 (float): negative decimal logarithm of the concentration in molar.

Reported pEC50 for UniProt O54798, given `CC(C)(C)c1ccc(S(=O)(=O)N2Cc3ccc(C(F)(F)F)nc3Nc3cccc(-c4ncon4)c32)cc1` ?
7.24

And what about the compound `Cn1cc(-c2cccc3c2N(S(=O)(=O)c2ccc(C(C)(C)C)cc2)Cc2ccc(C(F)(F)F)nc2N3)cn1` ?
6.99

And what about the compound `CC(C)(C)c1ccc(S(=O)(=O)N2Cc3ccc(C(F)(F)F)nc3Nc3cccc(-c4noc(=O)[nH]4)c32)cc1` ?
7.12

And what about the compound `CC(C)(C)c1ccc(S(=O)(=O)N2Cc3ccc(C(F)(F)F)nc3Nc3cccc(-c4noc(C(C)(C)O)n4)c32)cc1` ?
7.08

And what about the compound `CC(C)(O)c1nc(-c2cccc3c2N(S(=O)(=O)c2ccc(OC(F)F)cc2)Cc2ccc(C(F)(F)F)nc2N3)no1` ?
7.00

And what about the compound `C[C@H](O)c1nc(-c2cccc3c2N(S(=O)(=O)c2ccc(C(C)(C)C)cc2)Cc2ccc(C(F)(F)F)nc2N3)no1` ?
7.05

====

Target: Bombesin receptor subtype-3 (Homo sapiens, UniProt P32247)
Sequence (P32247 whole entry): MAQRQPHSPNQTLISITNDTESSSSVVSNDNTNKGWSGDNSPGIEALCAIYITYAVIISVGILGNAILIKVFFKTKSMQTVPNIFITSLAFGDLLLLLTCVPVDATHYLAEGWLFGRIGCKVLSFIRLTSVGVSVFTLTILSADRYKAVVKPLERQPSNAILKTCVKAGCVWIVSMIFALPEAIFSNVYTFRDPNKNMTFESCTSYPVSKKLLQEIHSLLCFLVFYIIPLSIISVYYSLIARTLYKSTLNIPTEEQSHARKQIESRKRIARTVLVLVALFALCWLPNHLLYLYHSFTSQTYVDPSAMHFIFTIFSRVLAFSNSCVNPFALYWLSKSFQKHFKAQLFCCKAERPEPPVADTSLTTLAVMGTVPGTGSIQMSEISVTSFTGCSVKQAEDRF
Test: Agonist activity at human BRS-3 expressed in HEK293AEQ cells assessed as bioluminescence for 10 mins by aequorin bioluminescence assay
Would you mind telling me the reported pEC50 of each entry?
Field pEC50 (float): negative decimal logarithm of the concentration in molar.

Reported pEC50 for Bombesin receptor subtype-3 (Homo sapiens, UniProt P32247), given `Cn1cc(-c2cccc3c2N(S(=O)(=O)c2ccc(C(C)(C)C)cc2)Cc2ccc(C(F)(F)F)nc2N3)cn1` ?
7.20

And what about the molecule `CC(C)(C)c1ccc(S(=O)(=O)N2Cc3ccc(C(F)(F)F)nc3Nc3cccc(-c4ncon4)c32)cc1` ?
7.40

And what about the molecule `C[C@H](O)c1nc(-c2cccc3c2N(S(=O)(=O)c2ccc(C(C)(C)C)cc2)Cc2ccc(C(F)(F)F)nc2N3)no1` ?
7.28

And what about the molecule `C[C@@H](O)c1nc(-c2cccc3c2N(S(=O)(=O)c2ccc(C(C)(C)C)cc2)Cc2ccc(C(F)(F)F)nc2N3)no1` ?
7.16

And what about the molecule `CC(C)(C)c1ccc(S(=O)(=O)N2Cc3ccc(C(F)(F)F)nc3Nc3cccc(-c4cccnc4)c32)cc1` ?
7.38

Ref: ChEMBL document CHEMBL2163341
